TARGET: eNOS (Bos taurus)
Sequence (P29473 2-1205 limits assumed): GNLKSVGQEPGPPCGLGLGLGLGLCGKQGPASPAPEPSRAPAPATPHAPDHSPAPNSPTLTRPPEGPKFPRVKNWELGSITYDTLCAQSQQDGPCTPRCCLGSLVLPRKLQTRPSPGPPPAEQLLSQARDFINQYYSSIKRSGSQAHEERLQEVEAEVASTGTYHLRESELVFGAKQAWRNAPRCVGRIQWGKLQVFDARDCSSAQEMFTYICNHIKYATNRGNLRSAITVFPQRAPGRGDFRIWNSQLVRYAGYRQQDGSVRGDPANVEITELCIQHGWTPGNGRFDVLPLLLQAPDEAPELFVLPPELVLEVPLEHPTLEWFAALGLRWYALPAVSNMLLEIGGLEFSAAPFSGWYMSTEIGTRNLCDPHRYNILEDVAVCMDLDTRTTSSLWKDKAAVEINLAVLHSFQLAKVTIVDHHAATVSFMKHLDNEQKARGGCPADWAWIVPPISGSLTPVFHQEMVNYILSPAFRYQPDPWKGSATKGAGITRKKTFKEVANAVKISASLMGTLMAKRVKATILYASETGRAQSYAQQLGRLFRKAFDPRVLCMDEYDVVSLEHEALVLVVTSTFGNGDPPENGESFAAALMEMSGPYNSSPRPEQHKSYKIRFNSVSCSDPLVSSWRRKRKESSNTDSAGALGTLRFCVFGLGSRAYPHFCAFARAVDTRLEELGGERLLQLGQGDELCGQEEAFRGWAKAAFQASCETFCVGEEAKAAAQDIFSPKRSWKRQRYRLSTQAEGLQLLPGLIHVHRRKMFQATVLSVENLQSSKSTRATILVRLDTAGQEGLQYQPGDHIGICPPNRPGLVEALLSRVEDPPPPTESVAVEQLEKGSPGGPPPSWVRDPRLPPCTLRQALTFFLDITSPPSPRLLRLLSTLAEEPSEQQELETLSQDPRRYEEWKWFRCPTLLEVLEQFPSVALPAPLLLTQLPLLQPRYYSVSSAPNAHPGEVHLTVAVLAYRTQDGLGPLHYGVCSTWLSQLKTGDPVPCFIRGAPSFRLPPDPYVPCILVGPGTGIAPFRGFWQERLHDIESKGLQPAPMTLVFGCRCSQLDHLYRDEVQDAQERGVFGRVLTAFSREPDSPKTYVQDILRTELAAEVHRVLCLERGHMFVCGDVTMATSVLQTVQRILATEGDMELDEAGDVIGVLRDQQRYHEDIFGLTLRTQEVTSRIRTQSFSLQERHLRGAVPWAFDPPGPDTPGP
pKi: −log10 of the molar value.
Recorded pKi values for a group of compounds are listed next.

>  <STRUCTURE SMILES STRING>
c1cncc(CCCNCCc2ccnc(-n3ccnc3)n2)c1

>  <TARGET>
eNOS (Bos taurus)

>  <pKi>
4.96

$$$$
>  <STRUCTURE SMILES STRING>
N#Cc1cccc(CNCCc2ccnc(-n3ccnc3)n2)c1

>  <TARGET>
eNOS (Bos taurus)

>  <pKi>
4.98

$$$$
>  <STRUCTURE SMILES STRING>
Fc1cccc(CCNCCNc2ccnc(-n3ccnc3)n2)c1

>  <TARGET>
eNOS (Bos taurus)

>  <pKi>
4.40

$$$$
>  <STRUCTURE SMILES STRING>
Fc1cccc(CCCNCc2ccnc(-n3ccnc3)n2)c1

>  <TARGET>
eNOS (Bos taurus)

>  <pKi>
4.05

$$$$

Taken from patent US9878996B2.
